pIC50 values, listed per item
- System: PDK1 kinase activity in PC3 cells (phospho-T308-PKB)
- experimental_protocol: Cellular testing of PDK1 kinase inhibitors in PC3 cells (Luminex, phospho-T308-PKB)
- Type: cell-based
- test_settings: Homo sapiens, PC-3, 0.5 h, 30 min with test substance, serum-free, phospho-T308-PKB by Luminex, read-out: IC50 [PC3 P-PKB Thr308]
pIC50: −log10 of the molar value.

CCc1cc(-c2c[nH]c3ncc(-c4cnn(CC(=O)NC5CC5)c4)cc23)nc(N)n1 ... 4.70 to 5.00
CCc1cc(-c2c[nH]c3ncc(-c4ccc(Cl)s4)cc23)nc(N)n1 ... 4.70 to 5.00
CC(C)n1cc(-c2cnc3[nH]cc(-c4cc(C(O)c5ccccc5)nc(N)n4)c3c2)cn1 (centres unmarked) ... 4.70 to 5.00
CC(C)CC(O)c1cc(-c2c[nH]c3ncc(-c4cnn(C(C)C)c4)cc23)nc(N)n1 (centres unmarked) ... 5.00 to 6.00
CCc1cc(-c2c[nH]c3ncc(-c4cnn(CCO)c4)cc23)nc(N)n1 ... 4.70 to 5.00

Prompt: Request the reported pIC50 associated with CC(O)Cc1cc(-c2c[nH]c3ncc(-c4cnn(C(C)C)c4)cc23)nc(N)n1 (centres unmarked)
Response: 4.70 to 5.00

Prompt: Request the reported pIC50 associated with CCc1cc(-c2c[nH]c3ncc(-c4cnn(CC5CCNC5)c4)cc23)nc(N)n1 (centres unmarked)
Response: 4.70 to 5.00
